// provenance: patent US8946266B2

# Tested on: Aβ42
# protocol text: γ-secretase-modulating activity, Method 2: Aβ42 Alphalisa in supernatant of SKNBE2 cells carrying APP 695-wild type (Table 3b)
# Format: cell-based
# experimental parameters: overnight
pIC50: −log10 of the molar value.
quantity kind: pIC50

Consider the worked cases shown below.
INSERT INTO measurements (molecule, quantity_kind, reported_value) VALUES
  ('COc1cc(-c2nc(Nc3cc(C(F)(F)F)cc(C(F)(F)F)c3)n(C)n2)ccc1-n1cnc(C)c1', 'pIC50', 7.89),
  ('COc1cc(-c2nc3n(n2)CCCC3c2ccccc2C)ccc1-n1cnc(C)c1 (centres unmarked)', 'pIC50', 7.28),
  ('COc1cc(-c2nc(Nc3cc(Cl)cc(Cl)c3)n(C)n2)ccc1-n1cnc(C)c1', 'pIC50', 6.99),
  ('COc1cc(-c2nc(-c3ccccc3Cl)n(CC3CC3)n2)ccc1-n1cnc(C)c1', 'pIC50', 6.51),
  ('COc1cc(-c2nc(Nc3cc(C)ccc3C(F)(F)F)n(C)n2)ccc1-n1cnc(C)c1', 'pIC50', 7.55);

I: COc1cc(-c2nc3n(n2)CCC[C@@H]3c2ccc(F)cc2C)ccc1-n1cnc(C)c1 [Compound 314]
II: COc1ccc(F)c(C2CCCn3nc(-c4ccc(-n5cnc(C)c5)c(OC)c4)nc32)c1 (centres unmarked)
III: COc1cc(-c2nc(Nc3ccc(C(F)(F)F)cc3)n(C)n2)ccc1-n1cnc(C)c1
stdin: Arrange the 3 molecules by rising pIC50, starting with the smallest. // ordering of labels required in reply
stdout: I, II, III
(I: 6.54, II: 7.08, III: 7.57)

* * *

# System: Aβ42
# protocol text: γ-secretase-modulating activity, Method 2: Aβ42 Alphalisa in supernatant of SKNBE2 cells carrying APP 695-wild type (Table 3b)
# Type: cell-based
# experimental parameters: Homo sapiens, overnight
# Experimental: Screening was carried out using SKNBE2 cells carrying the APP 695-wild type, grown in Dulbecco's Modified Eagle's Medium/Nutrient mixture F-12 (DMEM/NUT-mix F-12) (HAM) provided by Invitrogen (cat no. 10371-029) containing 5% Serum/Fe supplemented with 1% non-essential amino acids, 1-glutamine 2 mM, Hepes 15 mM, penicillin 50 U/ml (units/ml) en streptomycin 50 μg/ml. […] Aβtotal and Aβ42 concentrations were quantified in the cell supernatant using the Aphalisa technology (Perkin Elmer). […]
pIC50: −log10 of the molar value.
quantity kind: pIC50

Consider the worked cases shown below.
INSERT INTO results (compound, quantity_kind, reported_value) VALUES
  ('COc1cc(-c2nc3n(n2)CCOC3c2ccccc2C(F)(F)F)ccc1-n1cnc(C)c1 (stereo not drawn) [Compound 279]', 'pIC50', 7.21),
  ('COc1cc(-c2nc(C3CCc4ccccc4N3C)n(C)n2)ccc1-n1cnc(C)c1 (stereo not drawn) [Compound 366]', 'pIC50', 6.29),
  ('COc1ccc(CO)c(Nc2nc(-c3ccc(-n4cnc(C)c4)c(OC)c3)nn2C)c1 [Compound 200]', 'pIC50', 6.80),
  ('COc1cc(-c2nc3n(n2)CCCN3c2ccccc2C(F)(F)F)ccc1-n1cnc(C)c1 [Compound 18]', 'pIC50', 7.12),
  ('COc1cc(-c2nc(C(=O)c3cccc(C(F)(F)F)c3)n(C(C)C)n2)ccc1-n1cnc(C)c1 [Compound 91]', 'pIC50', 5.63);

A: COc1cc(-c2nc(Nc3ccc(F)cc3C)n(C)n2)ccc1-n1cnc(C)c1 [Compound 130]
B: COc1cc(-c2nc(-c3cc(F)c(F)c(F)c3)n(C(C)C)n2)ccc1-n1cnc(C)c1 [Compound 84]
stdin: Between A and B , whose measured pIC50 reads higher? Identify your selection by its label.
stdout: A

a: COc1cc(-c2nc(Nc3ccccc3C)n(C)n2)ccc1-n1cnc(C)c1 [Compound 97]
b: COc1cc(-c2nc3n(n2)CCN(C(C)=O)C3c2ccccc2C(F)(F)F)ccc1-n1cnc(C)c1 (stereo not drawn) [Compound 276]
stdin: Between the entries labeled a and b , whose measured pIC50 is lower? Identify your selection by its label.
stdout: b
